# ASSAYED_TARGET: human glucagon-like peptide 1 receptor (GLP-1R) (human, UniProt P43220)
# MEASUREMENT_NOTES: cell-based or functional assay
Square brackets hold non-standard residues; d marks the D form. Aib = CC(C)(N)C(=O)O
MEASURED_ATTRIBUTE: EC50 GLP-1 (nM); cAMP AlphaScreen

1) H-H[Aib]EGSFTSELATILDEQAARDFIAWLYRHKITD-OH (not fully specified; printed as Hy-H[Aib]EGSFTSELATILDEQAARDFIAWLYRHKITD-OH) [Compound 30]; 0.1
2) H-H[Aib]EGTFTSELSTILDEQAARDFIAWLHAQKITD-OH (not fully specified; printed as Hy-H[Aib]EGTFTSELSTILDEQAARDFIAWLHAQKITD-OH) [Compound 27]; 0.12
